The measured values listed here are drawn from ChEMBL document CHEMBL1909294.

Here's what we have: HepSE_hepatitis numbers for Hepatotoxicity.
quantityMeasured: HepSE_hepatitis

[[record]]
compound = "C[C@H]1C[C@H]2[C@@H]3CCC4=CC(=O)C=C[C@]4(C)[C@@]3(F)[C@@H](O)C[C@]2(C)[C@@]1(O)C(=O)CCl"
endpointvalue = 0

[[record]]
compound = "CC(C)NCC(O)COc1cccc2[nH]ccc12 (configuration not stated)"
endpointvalue = 0

[[record]]
compound = "Cc1cc(C(=O)NNCc2ccccc2)no1"
endpointvalue = 0

[[record]]
compound = "CC(CN1c2ccccc2Sc2ccccc21)N(C)C (configuration not stated)"
endpointvalue = 0

[[record]]
compound = "CN(C)CC/C=C1/c2ccccc2COc2ccc(CC(=O)O)cc21"
endpointvalue = 0

[[record]]
compound = "CC(C)c1nc(N(C)S(C)(=O)=O)nc(-c2ccc(F)cc2)c1/C=C/[C@@H](O)C[C@@H](O)CC(=O)O"
endpointvalue = 1

[[record]]
compound = "CO[C@H]1/C=C/O[C@@]2(C)Oc3c(C)c(O)c4c(O)c(c(/C=N/N5CCN(C6CCCC6)CC5)c(O)c4c3C2=O)NC(=O)/C(C)=C\\C=C\\[C@H](C)[C@H](O)[C@@H](C)[C@@H](O)[C@@H](C)[C@H](OC(C)=O)[C@@H]1C"
endpointvalue = 1


###

Collected HepSE_hepatic failure values appear next to each entry.
Tested on: Hepatotoxicity
quantityMeasured: HepSE_hepatic failure

[[record]]
compound = "Cc1ccccc1N1C(=O)c2cc(S(N)(=O)=O)c(Cl)cc2NC1C (stereo not drawn)"
studytarget = "Hepatotoxicity"
endpointvalue = 0

[[record]]
compound = "C#C[C@]1(O)CC[C@H]2[C@@H]3CCC4=Cc5oncc5C[C@]4(C)[C@H]3CC[C@@]21C"
studytarget = "Hepatotoxicity"
endpointvalue = 0

[[record]]
compound = "CCOC(=O)[C@H](CCc1ccccc1)N[C@@H](C)C(=O)N1CCC[C@H]1C(=O)O"
studytarget = "Hepatotoxicity"
endpointvalue = 1

[[record]]
compound = "CN(C)c1cc(NC(=O)CNC(C)(C)C)c(O)c2c1C[C@H]1C[C@H]3[C@H](N(C)C)C(O)=C(C(N)=O)C(=O)[C@@]3(O)C(O)=C1C2=O"
studytarget = "Hepatotoxicity"
endpointvalue = 1

[[record]]
compound = "COc1ccc([C@@H]2Sc3ccccc3N(CCN(C)C)C(=O)[C@@H]2OC(C)=O)cc1"
studytarget = "Hepatotoxicity"
endpointvalue = 0

[[record]]
compound = "Cc1noc(NS(=O)(=O)c2ccc(N)cc2)c1C"
studytarget = "Hepatotoxicity"
endpointvalue = 0

[[record]]
compound = "O=c1[nH]cnc2c1ncn2[C@H]1CC[C@@H](CO)O1"
studytarget = "Hepatotoxicity"
endpointvalue = 1

[[record]]
compound = "Cc1c(-c2ccccc2)oc2c(C(=O)OCCN3CCCCC3)cccc2c1=O [FLAVOXATE]"
studytarget = "Hepatotoxicity"
endpointvalue = 0


###

# collection of HepSE_Combined Scores values tested on Hepatotoxicity
quantityMeasured: HepSE_Combined Scores

[[record]]
compound = "CN1CCC[C@@H]1CCO[C@](C)(c1ccccc1)c1ccc(Cl)cc1"
endpointvalue = 0

[[record]]
compound = "COC(=O)[C@H]1[C@H]2C[C@@H]3c4[nH]c5cc(OC)ccc5c4CCN3C[C@H]2C[C@@H](OC(=O)c2cc(OC)c(OC)c(OC)c2)[C@@H]1OC"
endpointvalue = 0

[[record]]
compound = "CC(C)(Oc1ccc(CCNC(=O)c2ccc(Cl)cc2)cc1)C(=O)O [BEZAFIBRATE]"
endpointvalue = 1

[[record]]
compound = "C[C@H]1C[C@@H]2[C@H]([C@@H](O)C[C@@]3(C)[C@H]2CC[C@]3(O)C(=O)CO)[C@@]2(C)C=CC(=O)C=C12"
endpointvalue = 0

[[record]]
compound = "N=C(N)NCCC[C@H](N)C(=O)O"
endpointvalue = 0

[[record]]
compound = "CN(C)S(=O)(=O)c1ccc2c(c1)N(CCCN1CCC(CCO)CC1)c1ccccc1S2"
endpointvalue = 1

[[record]]
compound = "OCCN1CCN(CCCN2c3ccccc3Sc3ccc(C(F)(F)F)cc32)CC1"
endpointvalue = 2

[[record]]
compound = "N=C(N)NC(=O)Cc1c(Cl)cccc1Cl"
endpointvalue = 1

[[record]]
compound = "Clc1ccc(CCC(Cn2ccnc2)Sc2c(Cl)cccc2Cl)cc1 (configuration not stated)"
endpointvalue = 0

[[record]]
compound = "COc1cc(N)c(Cl)cc1C(=O)NC1CCN(CCCOc2ccc(F)cc2)CC1OC (configuration not stated) [CISAPRIDE]"
endpointvalue = 1

[[record]]
compound = "Cc1ccc(NC(=O)c2ccc(CN3CCN(C)CC3)cc2)cc1Nc1nccc(-c2cccnc2)n1"
endpointvalue = 4

[[record]]
compound = "O=C(NCC(O)CO)c1c(I)c(C(=O)NCC(O)CO)c(I)c(N(CCO)C(=O)CO)c1I (configuration not stated)"
endpointvalue = 0

[[record]]
compound = "CC(=O)S[C@@H]1CC2=CC(=O)CC[C@]2(C)[C@H]2CC[C@@]3(C)[C@@H](CC[C@@]34CCC(=O)O4)[C@H]12"
endpointvalue = 0

[[record]]
compound = "CCNC(=O)[C@@H]1CCCN1C(=O)[C@H](CCCNC(=N)N)NC(=O)[C@H](CC(C)C)NC(=O)[C@@H](COC(C)(C)C)NC(=O)[C@H](Cc1ccc(O)cc1)NC(=O)[C@H](CO)NC(=O)[C@H](Cc1c[nH]c2ccccc12)NC(=O)[C@H](Cc1cnc[nH]1)NC(=O)[C@@H]1CCC(=O)N1"
endpointvalue = 0

[[record]]
compound = "CNC(=O)c1cc(Oc2ccc(NC(=O)Nc3ccc(Cl)c(C(F)(F)F)c3)cc2)ccn1"
endpointvalue = 2

[[record]]
compound = "CCCCC[C@](C)(O)/C=C/[C@@H]1[C@@H](C/C=C/CCCC(=O)O)[C@@H](O)C[C@H]1O"
endpointvalue = 0

[[record]]
compound = "OCCOCCN1CCN(C(c2ccccc2)c2ccc(Cl)cc2)CC1 (configuration not stated) [HYDROXYZINE]"
endpointvalue = 0

[[record]]
compound = "Cl.N [AMMONIUM CHLORIDE]"
endpointvalue = 0

[[record]]
compound = "COC(=O)C1=C(C)NC(C)=C(C(=O)OCCN(C)Cc2ccccc2)C1c1cccc([N+](=O)[O-])c1 (configuration not stated)"
endpointvalue = 0

[[record]]
compound = "O=C(O)P(=O)(O)O"
endpointvalue = 0

[[record]]
compound = "CC1(C)S[C@@H]2[C@H](NC(=O)Cc3ccccc3)C(=O)N2[C@H]1C(=O)O"
endpointvalue = 0

[[record]]
compound = "CC(C)(N)Cc1ccccc1"
endpointvalue = 0

[[record]]
compound = "CC(C)C(=O)Nc1ccc([N+](=O)[O-])c(C(F)(F)F)c1 [FLUTAMIDE]"
endpointvalue = 3

[[record]]
compound = "C[n+]1ccccc1/C=N/O"
endpointvalue = 0

[[record]]
compound = "O=[As][As+](=O)[O-] (configuration not stated) [ARSENIC TRIOXIDE]"
endpointvalue = 0

[[record]]
compound = "CCN(CC)CCCC(C)Nc1ccnc2cc(Cl)ccc12 (configuration not stated)"
endpointvalue = 0

[[record]]
compound = "CC(O)(CS(=O)(=O)c1ccc(F)cc1)C(=O)Nc1ccc(C#N)c(C(F)(F)F)c1 (configuration not stated) [BICALUTAMIDE]"
endpointvalue = 3

[[record]]
compound = "CCC[C@@H]1C[C@@H](C(=O)N[C@@H]([C@H]2O[C@H](SC)[C@H](O)[C@@H](O)[C@H]2O)[C@@H](C)O)N(C)C1"
endpointvalue = 2

[[record]]
compound = "C[N+](C)(C)CCOC(=O)CCC(=O)OCC[N+](C)(C)C"
endpointvalue = 0

[[record]]
compound = "NC[C@@H]1O[C@H](O[C@H]2[C@@H](O)[C@H](O[C@@H]3[C@@H](O)[C@H](N)C[C@H](N)[C@H]3O[C@H]3O[C@H](CO)[C@@H](O)[C@H](O)[C@H]3N)O[C@@H]2CO)[C@H](N)[C@@H](O)[C@@H]1O"
endpointvalue = 0

[[record]]
compound = "CC(C)c1nc(N(C)S(C)(=O)=O)nc(-c2ccc(F)cc2)c1/C=C/[C@@H](O)C[C@@H](O)CC(=O)O"
endpointvalue = 2

[[record]]
compound = "O=C1CN=C(c2ccccc2Cl)c2cc([N+](=O)[O-])ccc2N1"
endpointvalue = 1

